Tested on: S. mansoni adult worms
Assay: S. mansoni adult worm motility screen (WormassayGP2), 72 h
Assay type: cell-based, Schistosoma mansoni
Settings: Schistosoma mansoni, Table 5, Series C; read-out: Anti-schistosomal activity EC50 Adult (nM) Motility
Procedure: Mice (Mus musculus HsdOLa:TO - Tuck Ordinary; Envigo, UK) were used for the mammalian-specific propagation of the S. mansoni life cycle. […] For the evaluation of anti-schistosomal activity on the adult stage of the parasite, 7-wk old worms were transferred into 48 well tissue culture plates (1–3 worm pairs/well, in duplicate). […] Parasite motility after compound treatment was assessed by a digital image processing-based system (WormassayGP2), modified after Wormassay. […]
Measured EC50, listed per entry for reference.
quantity name: EC50 (nM)

INSERT INTO measurements (compound, test_target, numeric_value) VALUES
  ('CCCCCC(=O)Nc1ccc2nc(Nc3ccc(Cl)c(Cl)c3)c(Nc3ccc(Cl)c(Cl)c3)nc2c1 [Compound 22d]', 'S. mansoni adult worms', 318),
  ('CC(=O)Nc1ccc2nc(Nc3ccc(Cl)c(Cl)c3)c(Nc3ccc(Cl)c(Cl)c3)nc2c1 [Compound 22c]', 'S. mansoni adult worms', 704);

---

Test system: S. mansoni schistosomula
Assay: S. mansoni schistosomula high-throughput phenotype and motility screen (Roboworm), 72 h
Format: cell-based, Schistosoma mansoni
Details: Schistosoma mansoni, Table 5, Series C; read-out: Anti-schistosomal activity EC50 Schistosomula (μM) Motility
quantity name: EC50

INSERT INTO assay_data (compound, result) VALUES
  ('O=C(Nc1ccc2nc(Nc3ccc(Cl)c(Cl)c3)c(Nc3ccc(Cl)c(Cl)c3)nc2c1)C1CCCCC1 [Compound 22e]', '> 50 µM'),
  ('CC(=O)Nc1ccc2nc(Nc3ccc(Cl)c(Cl)c3)c(Nc3ccc(Cl)c(Cl)c3)nc2c1 [Compound 22c]', '2.79 µM'),
  ('O=C(Nc1ccc2nc(Nc3ccc(Cl)c(Cl)c3)c(Nc3ccc(Cl)c(Cl)c3)nc2c1)c1cccc(C(F)(F)F)c1 [Compound 22g]', '> 50 µM');

---

System: adult S. japonicum male worms
Assay: In vitro screening of S. japonicum adults at 100 nM (WormAssay motility, descriptors, severity score)
Assay type: cell-based, Schistosoma japonicum
Conditions: S. japonicum, 5 h, max = 4, one line per replicate
Examples of compounds with documented SEVERITY SCORES 5 h follow.
quantity name: SEVERITY SCORES 5 h

INSERT INTO assay_data (compound, numeric_value) VALUES
  ('O=[N+]([O-])c1ccc2nc(Nc3cccc(C(F)(F)F)c3)c(Nc3cccc(C(F)(F)F)c3)nc2c1 [Compound 30]', 0),
  ('O=[N+]([O-])c1ccc2nc(Nc3ccc(C(F)(F)F)cc3)c(Nc3ccc(C(F)(F)F)cc3)nc2c1 [Compound 31]', 0),
  ('O=[N+]([O-])c1ccc2nc(Nc3cccc(Cl)c3)c(Nc3cccc(Cl)c3)nc2c1 [Compound 25]', 0);

---

Test system: S. mansoni adult worms
Test: S. mansoni adult worm motility screen (WormassayGP2), 72 h
Type: cell-based, Schistosoma mansoni
Settings: Schistosoma mansoni, Table 4, Series A; read-out: Anti-schistosomal activity EC50 Adult (nM) Motility
Method: Mice (Mus musculus HsdOLa:TO - Tuck Ordinary; Envigo, UK) were used for the mammalian-specific propagation of the S. mansoni life cycle. […] For the evaluation of anti-schistosomal activity on the adult stage of the parasite, 7-wk old worms were transferred into 48 well tissue culture plates (1–3 worm pairs/well, in duplicate). […] Parasite motility after compound treatment was assessed by a digital image processing-based system (WormassayGP2), modified after Wormassay. […]
quantity name: EC50 (nM)

INSERT INTO measurements (smiles, test_target, quantity_name, numeric_value) VALUES
  ('O=[N+]([O-])c1ccc2nc(Nc3ccc(Cl)cc3)c(Nc3ccc(Cl)cc3)nc2c1', 'S. mansoni adult worms', 'EC50', 20.3),
  ('O=[N+]([O-])c1ccc2nc(Nc3ccc(C(F)(F)F)cc3)c(Nc3ccc(C(F)(F)F)cc3)nc2c1', 'S. mansoni adult worms', 'EC50', 7.7),
  ('O=[N+]([O-])c1ccc2nc(Nc3cccc(Cl)c3)c(Nc3cccc(Cl)c3)nc2c1', 'S. mansoni adult worms', 'EC50', 12),
  ('O=[N+]([O-])c1ccc2nc(Nc3cc(F)cc(C(F)(F)F)c3)c(Nc3cc(F)cc(C(F)(F)F)c3)nc2c1', 'S. mansoni adult worms', 'EC50', 6.47);

Value source: paper PMC8626775
